pIC50: −log10 of the molar value.
Compiled literature pIC50, tested on Tyrosine-protein kinase ZAP-70 (Homo sapiens, UniProt P43403).

Cpd Smiles	pIC50
CS(=O)(=O)CCNC(=O)c1ccc(S(=O)(=O)NCc2c[nH]c3ncccc23)cc1	≥ 5.00
CC(=O)Nc1cccc(-c2cnc3[nH]cc(C(=O)c4cc(O)ccc4F)c3c2)c1	≥ 5.00
O=C(c1cccc(O)c1)c1ccc(-c2cnc3[nH]ccc3c2)s1	≥ 5.00
O=C(c1cccc(F)c1)c1c[nH]c2ncc(Br)cc12	≥ 5.00
COc1cc(-c2cc3nccc(-c4cn[nH]c4)c3o2)cc(OC)c1OC	4.30 to 5.52

So for CC(=O)Nc1cccc(-c2cnc3[nH]cc(C(=O)c4cccc(O)c4F)c3c2)c1 , the logged pIC50 turned out to be ≥ 5.00

So for Clc1nccn2nc(Nc3ccccc3)nc12 , the logged pIC50 turned out to be 4.30 to 5.52

So for O=C(OCc1ccccc1)c1cnc2[nH]ccc2c1 , the logged pIC50 turned out to be ≥ 5.00

So for O=Cc1ccc(-c2ccnc3[nH]ccc23)cc1 , the logged pIC50 turned out to be ≥ 5.00

So for O=C(O)/C=C/c1cccc(-c2cnc3[nH]cc(C(=O)c4ccccc4F)c3c2)c1 , the logged pIC50 turned out to be ≥ 5.00

So for COc1ccc(F)cc1Cc1c[nH]c2ncccc12 , the logged pIC50 turned out to be ≥ 5.00

So for Cc1cccc(Nc2nc3c(-c4ccccc4)nccn3n2)c1 , the logged pIC50 turned out to be 4.30 to 5.52

###

Compiled literature IC50, tested on Tyrosine-protein kinase ZAP-70 (Homo sapiens, UniProt P43403).

Illustrative cases are given below, each with its answer.
Cpd Smiles	Target System	IC50
COc1cc(-c2cc3nccc(-c4cnn(C)c4)c3o2)ccc1O	Tyrosine-protein kinase ZAP-70 (Homo sapiens, UniProt P43403)	0.3 to 3 µM
c1ccc(Nc2nc3c(NCCCN4CCOCC4)nccn3n2)cc1	Tyrosine-protein kinase ZAP-70 (Homo sapiens, UniProt P43403)	0.3 to 3 µM
COc1cc(-c2cc3nccc(-c4ccc(N)cc4)c3o2)cc(OC)c1OC	Tyrosine-protein kinase ZAP-70 (Homo sapiens, UniProt P43403)	0.3 to 3 µM
Cc1cc(C)cc(Nc2nc3c(Nc4ccc5c(n4)NC(=O)C(C)(C)O5)nccn3n2)c1	Tyrosine-protein kinase ZAP-70 (Homo sapiens, UniProt P43403)	3 to 50 µM
Cc1ccc(F)cc1C(=O)c1c[nH]c2ncc(-c3cccc(N)c3)cc12	Tyrosine-protein kinase ZAP-70 (Homo sapiens, UniProt P43403)	≤ 10 µM

Value sought: IC50, system Tyrosine-protein kinase ZAP-70 (Homo sapiens, UniProt P43403), item O=S(=O)(NCc1c[nH]c2ncccc12)c1cccc(-c2cccc(CO)c2)c1 . Result: ≤ 10 µM

Value sought: IC50, system Tyrosine-protein kinase ZAP-70 (Homo sapiens, UniProt P43403), item COc1ccc(Cc2c[nH]c3ncccc23)cc1F . Result: ≤ 10 µM

Value sought: IC50, system Tyrosine-protein kinase ZAP-70 (Homo sapiens, UniProt P43403), item COc1cc(Nc2nc3c(-c4ccc5cccnc5c4)nccn3n2)cc(OC)c1 . Result: 3 to 50 µM

Value sought: IC50, system Tyrosine-protein kinase ZAP-70 (Homo sapiens, UniProt P43403), item c1cnc2cc(-c3nccn4nc(Nc5ccc(N6CCOCC6)cc5)nc34)ccc2c1 . Result: 0.3 to 3 µM
